Assay: Toxicity against Triticum aestivum Yang Mai 1 (wheat) assessed as growth inhibition at 450 ai g/ha post-emergent application measured after 20 days by green house crop selectivity test
Format: organism-based
Conditions: Yang Mai 1, triticum aestivum, in vivo, read-out: GI
readoutKind: inhibition at 480 h
Form entry: enter the amount, then its unit.

Record request: inhibition at 480 h value, item COP(=O)(OC)C(C)OC(=O)COc1ccc(Cl)cc1Cl (stereo unspecified) 0%

====

Test: Toxicity against Zea mays Gao you 1 (maize) assessed as growth inhibition at 225 ai g/ha post-emergent application measured after 20 days by green house crop selectivity test
Type: organism-based
Conditions: Gao you 1, zea mays, in vivo, read-out: GI
readoutKind: inhibition at 480 h
Form entry: enter the amount, then its unit.

Record request: inhibition at 480 h value, item COP(=O)(OC)C(C)OC(=O)COc1ccc(Cl)cc1Cl (stereo unspecified) 0%

====

Test: Toxicity against Triticum aestivum Yang Mai 1 (wheat) assessed as growth inhibition at 225 ai g/ha post-emergent application measured after 20 days by green house crop selectivity test
Type: organism-based
Details: Yang Mai 1, triticum aestivum, in vivo, read-out: GI
readoutKind: inhibition at 480 h (%)
# value in %; strip the unit string

Record request: inhibition at 480 h value, item COP(=O)(OC)C(C)OC(=O)COc1ccc(Cl)cc1Cl (stereo unspecified) [CLACYFOS] 0

====

System: Medicago sativa
Test: Pre-emergence herbicidal activity against Medicago sativa (alfalfa) assessed as growth inhibition at 1500 ai g/ha after 20 days by green house test
Format: functional
readoutKind: growth inhibition (GI)

Some molecules with known growth inhibition (GI) results, for comparison:
>>> df
                                   molecule             readoutkind  assayvalue
0  COP(=O)(OC)C(OC(=O)COc1c(Cl)cccc1Cl)c1cccc([N+](=O)[O-])c1 (stereo unspecified)  growth inhibition (GI)       <=50%
1  COP(=O)(OC)C(OC(=O)COc1ccccc1F)c1cccc([N+](=O)[O-])c1 (stereo unspecified)  growth inhibition (GI)       <=50%
2  COP(=O)(OC)C(C)OC(=O)COc1cccc(F)c1 (stereo unspecified)  growth inhibition (GI)       <=50%
3  COP(=O)(OC)C(C)OC(=O)COc1ccc(Cl)cc1 (stereo unspecified)  growth inhibition (GI)         90%
4  COP(=O)(OC)C(C)OC(=O)COc1ccccc1F (stereo unspecified)  growth inhibition (GI)       <=50%

# evaluate next
Record request: growth inhibition (GI) value, item COP(=O)(OC)C(C)OC(=O)COc1cc(F)cc(F)c1 (stereo unspecified) <=50%

====

Test: Toxicity against Zea mays Gao you 1 (maize) assessed as growth inhibition at 150 ai g/ha post-emergent application measured after 20 days by green house crop selectivity test
Format: organism-based
Settings: Gao you 1, zea mays, in vivo, read-out: GI
readoutKind: inhibition at 480 h
Form entry: enter the amount, then its unit.

Record request: inhibition at 480 h value, item COP(=O)(OC)C(C)OC(=O)COc1ccc(Cl)cc1Cl (stereo unspecified) [CLACYFOS] 0%

====

Test system: Medicago sativa
Experiment: Pre-emergence herbicidal activity against Medicago sativa (alfalfa) assessed as growth inhibition at 1500 ai g/ha after 20 days by green house test
Type: functional
readoutKind: growth inhibition (GI)

>>> df
                                   compound  assayvalue
0  COP(=O)(OC)C(OC(=O)COc1cccc(Cl)c1Cl)c1cccc([N+](=O)[O-])c1 (stereo not drawn)       <=50%
1  COP(=O)(OC)C(OC(=O)COc1ccccc1)c1ccccc1 (stereo not drawn)       <=50%
2  COP(=O)(OC)C(OC(=O)COc1ccc(C(F)(F)F)cc1[N+](=O)[O-])c1cccc([N+](=O)[O-])c1 (stereo not drawn)       <=50%

====

Test system: Echinochloa crus-galli
Assay: Post-emergence herbicidal activity against Echinochloa crus-galli (barnyard grass) assessed as growth inhibition at 1500 ai g/ha after 20 days by green house test
Format: functional
readoutKind: growth inhibition (GI)

>>> print(df.to_string())
                                   compound             readoutkind  assayvalue
0  COP(=O)(OC)C(OC(=O)COc1c(Cl)cccc1Cl)c1cccc([N+](=O)[O-])c1 (stereo not drawn)  growth inhibition (GI)       <=50%
1  COP(=O)(OC)C(C)OC(=O)COc1ccc(Br)cc1 (stereo not drawn)  growth inhibition (GI)       <=50%
2  COP(=O)(OC)C(OC(=O)COc1ccc(Cl)cc1Cl)c1cccc([N+](=O)[O-])c1 (stereo not drawn)  growth inhibition (GI)       <=50%

====

Test system: Echinochloa crus-galli
Assay: Post-emergence herbicidal activity against Echinochloa crus-galli (barnyard grass) assessed as growth inhibition at 1500 ai g/ha after 20 days by green house test
Assay type: functional
readoutKind: growth inhibition (GI)

In [3]: df
Out[3]:
                                   compound       measurementtarget             readoutkind  assayvalue
0  COP(=O)(OC)C(C)OC(=O)COc1cccc(F)c1 (stereo not drawn)  Echinochloa crus-galli  growth inhibition (GI)       <=50%
1  COP(=O)(OC)C(OC(=O)COc1ccc([N+](=O)[O-])cc1)c1cccc([N+](=O)[O-])c1 (stereo not drawn)  Echinochloa crus-galli  growth inhibition (GI)       <=50%
2  COP(=O)(OC)C(OC(=O)COc1ccc(C(F)(F)F)cc1[N+](=O)[O-])c1ccccc1 (stereo not drawn)  Echinochloa crus-galli  growth inhibition (GI)       <=50%

====

Test system: Medicago sativa
Assay: Pre-emergence herbicidal activity against Medicago sativa (alfalfa) assessed as growth inhibition at 1500 ai g/ha after 20 days by green house test
Format: functional
readoutKind: growth inhibition (GI)

                                   compound  assayvalue
0  COP(=O)(OC)C(OC(=O)COc1cccc(F)c1)c1cccc([N+](=O)[O-])c1 (stereo not drawn)       <=50%
1  COP(=O)(OC)C(C)OC(=O)COc1ccc(Br)cc1 (stereo not drawn)       <=50%
2  COP(=O)(OC)C(C)OC(=O)COc1cccc(Cl)c1Cl (stereo not drawn)       <=50%

====

System: Echinochloa crus-galli
Assay: Post-emergence herbicidal activity against Echinochloa crus-galli (barnyard grass) assessed as growth inhibition at 1500 ai g/ha after 20 days by green house test
Format: functional
readoutKind: growth inhibition (GI)

Some compounds with known growth inhibition (GI) results, for comparison:
                                   compound  assayvalue
0  COP(=O)(OC)C(C)OC(=O)COc1ccc(F)cc1Cl (configuration not stated)         75%
1  COP(=O)(OC)C(OC(=O)COc1ccccc1[N+](=O)[O-])c1ccccc1 (configuration not stated)       <=50%
2  COP(=O)(OC)C(OC(=O)COc1ccc(F)cc1F)c1cccc([N+](=O)[O-])c1 (configuration not stated)       <=50%
3              COP(=O)(COC(=O)COc1ccccc1)OC       <=50%
4  COP(=O)(OC)C(OC(=O)COc1ccccc1)c1ccccc1 (configuration not stated)       <=50%

Please state recorded growth inhibition (GI) (tested on Echinochloa crus-galli) of COP(=O)(OC)C(C)OC(=O)COc1cc(C)ccc1Cl (configuration not stated) <=50%

Note, next up: COP(=O)(OC)C(C)OC(=O)COc1ccc(Cl)cc1[N+](=O)[O-] (configuration not stated) <=50%

Note, next up: COP(=O)(OC)C(OC(=O)COc1ccc(F)c(Cl)c1)c1cccc([N+](=O)[O-])c1 (configuration not stated) 50%

Note, next up: COP(=O)(OC)C(OC(=O)COc1ccc(C)cc1)c1ccccc1 (configuration not stated) <=50%

Note, next up: COP(=O)(COC(=O)COc1ccc(C(F)(F)F)cc1)OC <=50%

====

Tested on: Echinochloa crus-galli
Test: Post-emergence herbicidal activity against Echinochloa crus-galli (barnyard grass) assessed as growth inhibition at 1500 ai g/ha after 20 days by green house test
Assay type: functional
readoutKind: growth inhibition (GI)

Some molecules with known growth inhibition (GI) results, for comparison:
In [3]: df
Out[3]:
                                   molecule             readoutkind  assayvalue
0  COP(=O)(OC)C(C)OC(=O)COc1ccc(F)cc1F (configuration not stated)  growth inhibition (GI)       <=50%
1  COP(=O)(OC)C(C)OC(=O)COc1ccc(F)cc1 (configuration not stated)  growth inhibition (GI)       <=50%
2  COP(=O)(OC)C(OC(=O)COc1ccc(F)cc1F)c1ccccc1 (configuration not stated)  growth inhibition (GI)       <=50%
3  COP(=O)(OC)C(OC(=O)COc1ccc(F)cc1Cl)c1ccccc1 (configuration not stated)  growth inhibition (GI)         75%
4  COP(=O)(OC)C(OC(=O)COc1cccc(F)c1)c1cccc([N+](=O)[O-])c1 (configuration not stated)  growth inhibition (GI)       <=50%
5  COP(=O)(OC)C(C)OC(=O)COc1ccc(Br)cc1Br (configuration not stated)  growth inhibition (GI)       <=50%

Record request: growth inhibition (GI) value, item COP(=O)(OC)C(OC(=O)COc1ccc(F)c(Cl)c1)c1ccccc1 (configuration not stated) 50%

Note, next up: COP(=O)(OC)C(C)OC(=O)COc1ccc(Cl)c(C)c1 (configuration not stated) <=50%

Note, next up: COP(=O)(OC)C(OC(=O)COc1cc(C)ccc1Cl)c1cccc([N+](=O)[O-])c1 (configuration not stated) <=50%
